test description: Acute toxicity
particulars: mouse, in vivo, po, Maus, als Hydrochlorid
test readout: LD50 (mg/kg)
Numbers only, in mg/kg.

# molecule Nc1c(Br)cc(Br)cc1CN[C@H]1CC[C@H](O)CC1 ; its LD50 = 2720
